Data provenance is patent US7632666B2.

A collection of compounds and their measured E-values DbjA
ASSAY_SYSTEM: haloalkane dehalogenase DbjA (Bradyrhizobium diazoefficiens, UniProt P59337)
Sequence (P59337 whole entry): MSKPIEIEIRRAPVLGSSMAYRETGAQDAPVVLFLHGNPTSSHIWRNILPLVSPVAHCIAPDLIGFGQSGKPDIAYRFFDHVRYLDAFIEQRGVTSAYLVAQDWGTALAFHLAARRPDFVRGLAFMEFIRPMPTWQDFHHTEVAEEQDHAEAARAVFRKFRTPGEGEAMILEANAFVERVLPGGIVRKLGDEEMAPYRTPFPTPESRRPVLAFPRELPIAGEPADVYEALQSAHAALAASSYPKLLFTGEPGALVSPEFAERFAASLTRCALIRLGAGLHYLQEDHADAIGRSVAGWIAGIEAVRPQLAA
Format: biochemical, Bradyrhizobium japonicum USDA110
I only need the number, thanks.

>>> test_value("CCC(Br)CBr (racemic)")
2.7
>>> test_value("CCCC(C)Br (racemic)")
145

## Input Using the record for CCCCC(C)Br (racemic) , state its measured E-values DbjA.
## Output 35

----------
A collection of molecules and their measured Relative activities (% of wt) L177Y
ASSAY_SYSTEM: haloalkane dehalogenase LinB L177Y (Sphingobium indicum, UniProt D4Z2G1, L177Y)
Sequence (D4Z2G1 whole entry L177Y, looked up): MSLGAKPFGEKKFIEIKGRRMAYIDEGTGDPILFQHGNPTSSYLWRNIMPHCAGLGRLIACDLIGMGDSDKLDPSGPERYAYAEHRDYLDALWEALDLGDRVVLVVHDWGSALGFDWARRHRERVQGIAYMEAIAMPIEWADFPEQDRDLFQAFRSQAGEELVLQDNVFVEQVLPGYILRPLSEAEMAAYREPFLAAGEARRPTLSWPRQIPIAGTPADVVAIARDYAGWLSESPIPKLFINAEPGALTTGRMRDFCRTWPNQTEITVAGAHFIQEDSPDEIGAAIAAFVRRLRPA
Assay type: biochemical

>>> test_value("BrCCBr")
"16 % of wt"
>>> test_value("ICCCI")
"102 % of wt"
>>> test_value("CCCCBr")
"112 % of wt"
>>> test_value("CCCCI")
"97 % of wt"

Lab note: next molecule to report on.
## Input Using the record for C=C(C)CCl , state its measured Relative activities (% of wt) L177Y.
## Output 78 % of wt

----------
ASSAY_SYSTEM: haloalkane dehalogenase DbjA (Bradyrhizobium diazoefficiens)
Assay type: biochemical, Bradyrhizobium japonicum USDA110
REPORTED_PROPERTY: E-values DbjA

>>> test_value("COC(=O)C(C)Br (racemic) [methyl 2-bromopropionate]")
">200"
>>> test_value("CCOC(=O)C(Br)CC (racemic) [ethyl 2-bromobutyrate]")
">200"

## Input Using the record for CC(Br)C(=O)c1ccccc1 (racemic) , state its measured E-values DbjA.
## Output >200
